Hi there, I'd appreciate the recorded fold change of affinity for every entry that follows.
Assayed System: T1, Human CD137 ECD (human)
T1 construct: also called 4-1BB
T1 sequence (chain, as listed by the source limits assumed): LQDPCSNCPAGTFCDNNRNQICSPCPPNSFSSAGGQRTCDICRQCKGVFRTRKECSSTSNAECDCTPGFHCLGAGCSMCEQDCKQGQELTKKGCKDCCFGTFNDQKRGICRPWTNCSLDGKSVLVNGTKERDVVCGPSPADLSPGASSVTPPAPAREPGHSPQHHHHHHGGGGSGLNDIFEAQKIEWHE
Assay: single mutant vs template dBBDu183H
Give bare numbers, in fold.

Return value of fold change of affinity for input H183/L072 VH A100M (antibody, name in Kabat numbering, V domains shown) VH: QVQLVESGGGLVQPGRSLRLSCAASGFTFSNAWMHWVRQAPGKGLEWVAQIKDKGNAYAAYYAPSVKGRFTISRDDSKNSIYLQMNSLKTEDTAVYYCHYVHYASMSTVLPAFGVDAWGQGTTVTVSS VL: DIVMTQSPLSLPVTPGEPASISCQASQELVHMNRNTYLHWYQQKPGQAPRLLIYKVSNRFPGVPDRFSGSGSGTDFTLKISRVEAEDVGVYYCAQGTSVPFTFGQGTKLEIK , no commentary.
0.7

Supply measured fold change of affinity of H183/L072 VH A57D (antibody, name in Kabat numbering, V domains shown) VH: QVQLVESGGGLVQPGRSLRLSCAASGFTFSNAWMHWVRQAPGKGLEWVAQIKDKGNAYADYYAPSVKGRFTISRDDSKNSIYLQMNSLKTEDTAVYYCHYVHYASASTVLPAFGVDAWGQGTTVTVSS VL: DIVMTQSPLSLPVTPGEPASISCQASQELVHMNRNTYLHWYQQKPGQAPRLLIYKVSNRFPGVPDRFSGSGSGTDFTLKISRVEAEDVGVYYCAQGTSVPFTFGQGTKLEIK in your reply.
1.2

Could you now consider this next binder?
Please report the measured fold change of affinity for H183/L072 VH F27A (antibody, name in Kabat numbering, V domains shown) VH: QVQLVESGGGLVQPGRSLRLSCAASGATFSNAWMHWVRQAPGKGLEWVAQIKDKGNAYAAYYAPSVKGRFTISRDDSKNSIYLQMNSLKTEDTAVYYCHYVHYASASTVLPAFGVDAWGQGTTVTVSS VL: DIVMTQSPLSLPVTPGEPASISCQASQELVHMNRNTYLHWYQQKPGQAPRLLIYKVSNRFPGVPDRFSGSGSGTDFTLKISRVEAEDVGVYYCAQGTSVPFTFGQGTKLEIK
0.3
